The measured values listed here are drawn from PubChem BioAssay AID652250.

Can you tell me IC50 for the items I'm about to list?
Target desc: Proteinase-activated receptor 4 (Homo sapiens)
Protocol notes: inhibition of PAR4-AP calcium signal – cell-based, single concentration, washed platelets, Fluo4 calcium (AID 652250)
Settings: PAR4-AP calcium Fluo4 fluorescence

Incoming: So what's the measured IC50 for this one? COc1ccc(-c2cn(Cc3ccccc3)c3ccccc23)cn1
Outgoing: 5.4 µM

Incoming: Let us now turn to COc1cccc(Cn2cc(-c3ccc(OC)nc3)c3ccccc32)c1
Outgoing: 14.6 µM

Incoming: Also check COc1ccc(-c2cn(Cc3ccccc3)c3ccccc23)cc1
Outgoing: 10 µM

Incoming: Follow-up item: COc1ccc(-c2cn(Cc3cccc(Cl)c3)c3ccccc23)cn1
Outgoing: 3.13 µM

Incoming: Then this molecule: COc1ccc(-c2cn(Cc3cccc(Br)c3)c3ccccc23)cn1
Outgoing: 5.27 µM

Incoming: Now consider Fc1ccc(-c2cn(Cc3ccccc3)c3ccccc23)cn1 .
Outgoing: 10 µM

Incoming: Same for COc1ccc(-c2cn(Cc3cccc(S(C)(=O)=O)c3)c3ccccc23)cn1
Outgoing: 10 µM

Incoming: Please give the result for COc1ccc(-c2cn(Cc3cccc(F)c3)c3ccccc23)cn1 too.
Outgoing: 3.85 µM

* * *

Target desc: Proteinase-activated receptor 4 (Homo sapiens) (UniProt Q96RI0)
Sequence (Q96RI0 whole entry, looked up): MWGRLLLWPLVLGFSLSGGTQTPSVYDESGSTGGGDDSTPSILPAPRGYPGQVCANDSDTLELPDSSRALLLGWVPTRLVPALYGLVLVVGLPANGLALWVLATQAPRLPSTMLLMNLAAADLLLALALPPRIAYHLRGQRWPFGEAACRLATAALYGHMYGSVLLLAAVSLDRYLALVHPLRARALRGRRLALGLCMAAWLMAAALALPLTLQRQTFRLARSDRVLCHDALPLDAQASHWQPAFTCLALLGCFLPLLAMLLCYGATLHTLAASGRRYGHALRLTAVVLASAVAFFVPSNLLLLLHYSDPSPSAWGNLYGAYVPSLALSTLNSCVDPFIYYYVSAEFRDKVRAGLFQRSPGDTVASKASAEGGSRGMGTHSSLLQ
Protocol notes: inhibition of PAR4-AP calcium signal – cell-based, single concentration, washed platelets, Fluo4 calcium (AID 652250)
Settings: PAR4-AP calcium Fluo4 fluorescence, at 10 µM
The source made the active and inactive calls.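 How the source made its calls: active means compounds leaving under half of the peptide-driven platelet calcium rise; inactive means the rest.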
Pick one and only one: 1 (yes) (active), 0 (no) (inactive)

Incoming: Outcome? Fc1cccc(Cn2cc(C(=S)N3CCCCC3)c3ccccc32)c1
Outgoing: 0 (no)

Incoming: Same again, this time with O=C(c1cn(Cc2ccccc2Cl)c2ccccc12)C(F)(F)F
Outgoing: 0 (no)

Incoming: // query: CC(=O)c1ccc(N2CCN(c3ncnc4c3c(-c3ccccc3)cn4-c3ccccc3)CC2)cc1
Outgoing: 0 (no)

Incoming: Also, COc1ccccc1NS(=O)(=O)c1ccc(NC(=O)c2ccc3c(c2)c(C)c(C)n3C)cc1 please.
Outgoing: 0 (no)

Incoming: Further, for COc1ccccc1OCCn1cc(C(=S)N2CCCC2)c2ccccc21 ?
Outgoing: 0 (no)

Incoming: Can you handle Cc1ccc(-n2cc(-c3ccccc3)c3c(N4CC(C)OC(C)C4)ncnc32)cc1 (centres undefined) next?
Outgoing: 0 (no)

Incoming: Try this compound next: COc1ccc(N(C)C(=O)Cc2c(C(=O)O)n(C)c3ccccc23)cc1
Outgoing: 0 (no)

Incoming: Again, but for Cc1ccc(OCCCn2cc(C(=O)C(F)(F)F)c3ccccc32)cc1
Outgoing: 0 (no)

Incoming: // same read-out, input: Cn1cc(C(=O)Cc2ccccc2)c2ccccc21
Outgoing: 0 (no)

Incoming: Now give it for CN(C)c1ccc(-c2cn(Cc3ccccc3)c3ccccc23)cn1 too.
Outgoing: 0 (no)

Incoming: Item: COc1ccc(-c2cn(Cc3ccccc3)c3ccccc23)c(OC)n1
Outgoing: 0 (no)

Incoming: Next: Cc1cc(F)ncc1-c1cn(Cc2ccccc2)c2ccccc12
Outgoing: 0 (no)

Incoming: Query Cc1cc(OCCn2cc(C(=S)N3CCOCC3)c3ccccc32)ccc1Cl next
Outgoing: 0 (no)

Incoming: Do the same for c1ccc(Cn2cc(-c3cncnc3)c3ccccc32)cc1 please
Outgoing: 0 (no)

Incoming: What do we get for O=C(Cn1cc(CO)c2ccccc21)Nc1ccccc1 ?
Outgoing: 0 (no)

Incoming: Field entry: O=C(Cn1cc(C(=O)C(F)(F)F)c2ccccc21)NC1CCCC1
Outgoing: 0 (no)

Incoming: Repeat with CCn1ccc(C(=O)Nc2ccc(C(F)(F)F)cc2Cl)n1
Outgoing: 0 (no)

Incoming: Another compound: CCOc1ccc(NC(=O)Cn2cc(C(=O)C(F)(F)F)c3ccccc32)cc1
Outgoing: 0 (no)

Incoming: Follow-up item: COc1ccc2c(c1)c(C(=O)N1CCCC1)c(C)n2Cc1ccccc1
Outgoing: 0 (no)

Incoming: Next: CCCCN(C)c1ncnc2c1c(-c1ccccc1)cn2-c1cccc(C)c1
Outgoing: 0 (no)

Incoming: Can you handle CC(=O)n1cc(-c2ccncc2)c2ccccc21 next?
Outgoing: 0 (no)

Incoming: Check O=C(c1cn(CCOc2ccccc2F)c2ccccc12)C(F)(F)F too.
Outgoing: 0 (no)

Incoming: c1ccc(Cn2cc(CN3CCN(c4ccccc4)CC3)c3ccccc32)cc1 , same question.
Outgoing: 0 (no)

Incoming: Also CC1CCCCN1C(=O)Cn1cc(C(=O)C(F)(F)F)c2ccccc21 (centres undefined) ?
Outgoing: 0 (no)

Incoming: What do we get for CSc1ncnc2c1c(-c1ccccc1)cn2-c1ccc(F)cc1 ?
Outgoing: 0 (no)

Incoming: Please do the same for OCCCNc1ncnc2c1c(-c1ccccc1)cn2-c1cccc(Cl)c1 as well.
Outgoing: 0 (no)

Incoming: Item: O=C(c1cn(CCOc2ccc(F)cc2)c2ccccc12)C(F)(F)F
Outgoing: 0 (no)

Incoming: Same thing, different compound: Clc1ccc(-n2cc(-c3ccccc3)c3c(N4CCOCC4)ncnc32)cc1
Outgoing: 0 (no)

Incoming: Then this compound: S=C(c1cn(CCOc2ccccc2Cl)c2ccccc12)N1CCCCC1
Outgoing: 1 (yes)

Incoming: Moving on to O=C(c1cn(CCOc2ccc(Cl)cc2)c2ccc(Br)cc12)C(F)(F)F
Outgoing: 0 (no)

Incoming: And COc1ccc2c(c1)c(CC(=O)Nc1ccc(Cl)cn1)c(C)n2C(=O)c1ccc(Cl)cc1 ?
Outgoing: 0 (no)

Incoming: Further, for Cc1ccc(-n2cc(-c3ccccc3)c3c(NCc4ccc5c(c4)OCO5)ncnc32)cc1Cl ?
Outgoing: 0 (no)

Incoming: Would you mind doing COc1ccc(OCCn2cc(C(=O)C(F)(F)F)c3ccccc32)cc1 as well?
Outgoing: 0 (no)

Incoming: Same again, this time with CCN(CC)CC(O)Cn1c(C)c(-c2ccccc2)c2cc([N+](=O)[O-])ccc21 (centres undefined)
Outgoing: 0 (no)

Incoming: How about this compound: COc1ccc(C(C[N+](=O)[O-])c2c(-c3ccccc3)n(C)c3ccccc23)cc1 (centres undefined)
Outgoing: 0 (no)

Incoming: One more compound: COc1cc(OC)cc(-c2cn(Cc3ccccc3)c3ccccc23)c1
Outgoing: 0 (no)

Incoming: Param item: Cc1nc(-c2cnn(-c3ccccc3)c2)c2cc(C)oc2n1
Outgoing: 0 (no)

Incoming: How about FC(F)(F)Oc1ccc(-c2cn(Cc3ccccc3)c3ccccc23)cc1 ?
Outgoing: 0 (no)

Incoming: And the next one, Oc1ccccc1-c1nc2c3c(-c4ccccc4)c(-c4ccccc4)n(Cc4ccco4)c3ncn2n1 ?
Outgoing: 0 (no)

Incoming: Param item: O=C(N/N=C/c1c[nH]c2ccccc12)c1ccn(Cc2ccc(Cl)cc2)n1
Outgoing: 0 (no)

Incoming: Also CCN(CC)c1ncnc2c1c(-c1ccccc1)cn2-c1ccc(C)c(Cl)c1 ?
Outgoing: 0 (no)

Incoming: Quick one: Fc1ccc(CNc2ncnc3c2c(-c2ccccc2)cn3-c2ccc(F)cc2)cc1
Outgoing: 0 (no)

Incoming: // next record c1ccc(CN2CCN(c3ncnc4c3c(-c3ccccc3)cn4-c3ccccc3)CC2)cc1
Outgoing: 0 (no)

Incoming: What do you have for O=C(c1ccccc1F)n1c2c(c3ccccc31)CCCC2 ?
Outgoing: 0 (no)
